The values you see were collected from ChEMBL document CHEMBL1132378.

# target_desc: Adenosine receptor A1 (Rattus norvegicus) (UniProt P25099)
# Sequence (whole entry): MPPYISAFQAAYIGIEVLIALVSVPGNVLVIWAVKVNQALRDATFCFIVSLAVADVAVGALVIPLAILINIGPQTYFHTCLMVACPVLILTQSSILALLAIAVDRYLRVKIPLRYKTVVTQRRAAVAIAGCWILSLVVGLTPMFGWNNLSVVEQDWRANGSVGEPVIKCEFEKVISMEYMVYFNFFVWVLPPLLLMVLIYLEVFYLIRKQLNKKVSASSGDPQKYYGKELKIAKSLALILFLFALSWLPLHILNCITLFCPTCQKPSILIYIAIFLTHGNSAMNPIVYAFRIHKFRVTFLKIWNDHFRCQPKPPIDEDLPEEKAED
# protocol_notes: Enhancing activity at 10 uM PD 81,723 (100%) at Adenosine A1 receptor in rat brain cortex membranes
# Type: cell membranes
Listing: Enhancement of selected compounds
quantity_measured: Enhancement (%)

[[record]]
test_smiles = "Nc1sc2c(c1C(=O)c1ccc(Cl)cc1)CCN(Cc1ccccc1)C2"
target_desc = "Adenosine receptor A1 (Rattus norvegicus) (UniProt P25099)"
quantity_measured = "Enhancement"
recorded_result = 132

[[record]]
test_smiles = "Nc1sc2c(c1C(=O)c1ccc([N+](=O)[O-])cc1)CCCC2"
target_desc = "Adenosine receptor A1 (Rattus norvegicus) (UniProt P25099)"
quantity_measured = "Enhancement"
recorded_result = 33.9

[[record]]
test_smiles = "Nc1sc2c(c1C(=O)c1ccc(Cl)cc1)CCN(Cc1ccc(Cl)c(Cl)c1)C2"
target_desc = "Adenosine receptor A1 (Rattus norvegicus) (UniProt P25099)"
quantity_measured = "Enhancement"
recorded_result = 106

[[record]]
test_smiles = "CCc1c(C)sc(N)c1C(=O)c1ccccc1"
target_desc = "Adenosine receptor A1 (Rattus norvegicus) (UniProt P25099)"
quantity_measured = "Enhancement"
recorded_result = 31.4

[[record]]
test_smiles = "Cc1ccc(C(=O)c2c(N)sc3c2CCCC3)cc1"
target_desc = "Adenosine receptor A1 (Rattus norvegicus) (UniProt P25099)"
quantity_measured = "Enhancement"
recorded_result = 137

[[record]]
test_smiles = "Nc1sc2c(c1C(=O)c1ccc(Cl)c(Cl)c1)CCN(Cc1ccccc1)C2"
target_desc = "Adenosine receptor A1 (Rattus norvegicus) (UniProt P25099)"
quantity_measured = "Enhancement"
recorded_result = 174

[[record]]
test_smiles = "Nc1sc2c(c1C(=O)c1cccc(Cl)c1)CCCC2"
target_desc = "Adenosine receptor A1 (Rattus norvegicus) (UniProt P25099)"
quantity_measured = "Enhancement"
recorded_result = 92.7

[[record]]
test_smiles = "Nc1sc2c(c1C(=O)c1ccccc1)CCCC2"
target_desc = "Adenosine receptor A1 (Rattus norvegicus) (UniProt P25099)"
quantity_measured = "Enhancement"
recorded_result = 47.2

[[record]]
test_smiles = "Nc1sc2c(c1C(=O)c1ccccc1)CCN(Cc1ccc(Cl)cc1)C2"
target_desc = "Adenosine receptor A1 (Rattus norvegicus) (UniProt P25099)"
quantity_measured = "Enhancement"
recorded_result = 69

[[record]]
test_smiles = "Nc1sc2c(c1C(=O)c1ccc(C(F)(F)F)cc1)CCCC2"
target_desc = "Adenosine receptor A1 (Rattus norvegicus) (UniProt P25099)"
quantity_measured = "Enhancement"
recorded_result = 131

[[record]]
test_smiles = "CCc1c(C)sc(N)c1C(=O)c1cccc(C(F)(F)F)c1"
target_desc = "Adenosine receptor A1 (Rattus norvegicus) (UniProt P25099)"
quantity_measured = "Enhancement"
recorded_result = 112

[[record]]
test_smiles = "Nc1sc2c(c1C(=O)c1ccc(Cl)cc1)CCCC2"
target_desc = "Adenosine receptor A1 (Rattus norvegicus) (UniProt P25099)"
quantity_measured = "Enhancement"
recorded_result = 123

[[record]]
test_smiles = "Cc1sc(N)c(C(=O)c2cccc(Cl)c2)c1C"
target_desc = "Adenosine receptor A1 (Rattus norvegicus) (UniProt P25099)"
quantity_measured = "Enhancement"
recorded_result = 80.3

[[record]]
test_smiles = "Nc1sc2c(c1C(=O)c1ccccc1)CCN(Cc1ccccc1)C2"
target_desc = "Adenosine receptor A1 (Rattus norvegicus) (UniProt P25099)"
quantity_measured = "Enhancement"
recorded_result = 52.8

[[record]]
test_smiles = "Cc1sc(N)c(C(=O)c2cccc(C(F)(F)F)c2)c1C"
target_desc = "Adenosine receptor A1 (Rattus norvegicus) (UniProt P25099)"
quantity_measured = "Enhancement"
recorded_result = 100

[[record]]
test_smiles = "Nc1sc2c(c1C(=O)c1ccc(Br)cc1)CCCC2"
target_desc = "Adenosine receptor A1 (Rattus norvegicus) (UniProt P25099)"
quantity_measured = "Enhancement"
recorded_result = 128

[[record]]
test_smiles = "Nc1sc2c(c1C(=O)c1cccc(C(F)(F)F)c1)CCCC2"
target_desc = "Adenosine receptor A1 (Rattus norvegicus) (UniProt P25099)"
quantity_measured = "Enhancement"
recorded_result = 122

[[record]]
test_smiles = "Nc1sc2c(c1C(=O)c1ccccc1Cl)CCCC2"
target_desc = "Adenosine receptor A1 (Rattus norvegicus) (UniProt P25099)"
quantity_measured = "Enhancement"
recorded_result = 72.5

[[record]]
test_smiles = "Nc1sc2c(c1C(=O)c1ccccc1)CCN(Cc1ccc(Cl)c(Cl)c1)C2"
target_desc = "Adenosine receptor A1 (Rattus norvegicus) (UniProt P25099)"
quantity_measured = "Enhancement"
recorded_result = 57

[[record]]
test_smiles = "Nc1sc2c(c1C(=O)c1ccccc1)CCN(C(=O)c1ccccc1)C2"
target_desc = "Adenosine receptor A1 (Rattus norvegicus) (UniProt P25099)"
quantity_measured = "Enhancement"
recorded_result = 13.8

[[record]]
test_smiles = "COC(=O)c1ccc(C(=O)c2c(N)sc3c2CCCC3)cc1"
target_desc = "Adenosine receptor A1 (Rattus norvegicus) (UniProt P25099)"
quantity_measured = "Enhancement"
recorded_result = 43.9

[[record]]
test_smiles = "Cc1sc(N)c(C(=O)c2ccccc2)c1C"
target_desc = "Adenosine receptor A1 (Rattus norvegicus) (UniProt P25099)"
quantity_measured = "Enhancement"
recorded_result = 8

[[record]]
test_smiles = "Nc1sc2c(c1C(=O)c1ccccc1)CCN(Cc1cccc(Cl)c1)C2"
target_desc = "Adenosine receptor A1 (Rattus norvegicus) (UniProt P25099)"
quantity_measured = "Enhancement"
recorded_result = 106

[[record]]
test_smiles = "Nc1sc2c(c1C(=O)c1ccc(C(=O)O)cc1)CCCC2"
target_desc = "Adenosine receptor A1 (Rattus norvegicus) (UniProt P25099)"
quantity_measured = "Enhancement"
recorded_result = 28.6

[[record]]
test_smiles = "CCc1c(C)sc(N)c1C(=O)c1cccc(Cl)c1"
target_desc = "Adenosine receptor A1 (Rattus norvegicus) (UniProt P25099)"
quantity_measured = "Enhancement"
recorded_result = 29.9

[[record]]
test_smiles = "Nc1sc2c(c1C(=O)c1ccc(I)cc1)CCCC2"
target_desc = "Adenosine receptor A1 (Rattus norvegicus) (UniProt P25099)"
quantity_measured = "Enhancement"
recorded_result = 155

[[record]]
test_smiles = "Cc1sc(N)c(C(=O)c2ccc(Cl)cc2)c1C"
target_desc = "Adenosine receptor A1 (Rattus norvegicus) (UniProt P25099)"
quantity_measured = "Enhancement"
recorded_result = 93.5

[[record]]
test_smiles = "Nc1sc2c(c1C(=O)c1ccc(Cl)c(Cl)c1)CCCC2"
target_desc = "Adenosine receptor A1 (Rattus norvegicus) (UniProt P25099)"
quantity_measured = "Enhancement"
recorded_result = 151

[[record]]
test_smiles = "Nc1sc2c(c1C(=O)c1cccc(I)c1)CCCC2"
target_desc = "Adenosine receptor A1 (Rattus norvegicus) (UniProt P25099)"
quantity_measured = "Enhancement"
recorded_result = 113

[[record]]
test_smiles = "CCc1c(C)sc(N)c1C(=O)c1ccc(Cl)cc1"
target_desc = "Adenosine receptor A1 (Rattus norvegicus) (UniProt P25099)"
quantity_measured = "Enhancement"
recorded_result = 97.2

